- Test System: Alpha-2C adrenergic receptor (Homo sapiens) (UniProt P18825)
- Sequence (P18825 whole entry, looked up): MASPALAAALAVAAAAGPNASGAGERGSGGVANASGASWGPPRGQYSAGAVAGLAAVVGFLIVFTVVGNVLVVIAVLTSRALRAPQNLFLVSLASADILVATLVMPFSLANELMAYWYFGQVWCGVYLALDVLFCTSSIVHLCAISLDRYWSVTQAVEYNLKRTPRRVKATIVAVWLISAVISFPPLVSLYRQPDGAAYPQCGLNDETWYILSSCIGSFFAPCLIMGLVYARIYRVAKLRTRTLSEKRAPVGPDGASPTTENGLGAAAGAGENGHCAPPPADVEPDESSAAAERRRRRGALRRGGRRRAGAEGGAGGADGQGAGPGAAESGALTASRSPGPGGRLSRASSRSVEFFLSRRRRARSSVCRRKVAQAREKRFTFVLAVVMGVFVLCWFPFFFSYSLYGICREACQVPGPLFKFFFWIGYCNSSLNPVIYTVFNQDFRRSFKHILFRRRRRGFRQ
- Method Summary: compounds altering alpha2C-coupled GIRK flux – cell-based, HEK293 alpha2C/GIRK1/2, thallium flux, primary screen (AID 624);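 note: slope of fluorescence ratio to pre-addition baseline per second over 15 to 24 s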
- Measurement Setup: thallium flux BTC fluorescence, at 10 µM, actives lie on both sides
Where a SMILES comes first, the peptide text is derived from it. The star is where a group is joined. Boc = CC(C)(C)OC(=O)*
Each record's class is read off its slope using these ranges: Low: < 0.005; Mid: ≥ 0.005 and < 0.006; High: ≥ 0.006

CC1CCC(NC(=O)Cn2ncc3ccccc32)CC1 (stereo not drawn): High
CC(=O)c1ccc(-n2nnnc2SCC(=O)N2CCc3ccccc3C2)cc1: Mid
O=C(CSc1nnc2ccccn12)c1ccccc1: High

Enquiry: # classify by slope band: `O=c1c2ccccc2nc(SCc2nnc(-c3ccccc3Br)o2)n1-c1ccccc1`
Return: Low

Enquiry: # classify by slope band: `Cc1ccc(-c2nc3cnccn3c2Nc2ccc3c(c2)OCO3)o1`
Return: Mid

Enquiry: # classify by slope band: `CC(=O)c1ccc(OC(=O)c2cccs2)cc1`
Return: High

Enquiry: # classify by slope band: CC(NC(=O)OC(C)(C)C)C(=O)N1CCCC1C(=O)NC(Cc1ccccc1)C(N)=O (stereo not drawn) (Boc-Ala-Pro-Phe-NH2; configuration not given here)
Return: Mid

Enquiry: # classify by slope band: `CCS(=O)(=O)c1nc2ccccc2n1Cc1ccccc1Cl`
Return: High

Enquiry: # classify by slope band: CC1C(=O)C(C)C(c2cccs2)NC1c1cccs1 (stereo not drawn)
Return: Mid

---

Hi there, I'd appreciate the recorded inhibition for every entry that follows.
- Method Summary: inhibitors of TNFa-induced NFkB p65 translocation, primary screen, imaging, HUVEC, MLSMR starter and 10KST1 sets (AID 438);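 note: compound added about 3h40 before a 20 min TNFalpha stimulation; signal is the nuclear over cytoplasmic p65 intensity ratio per well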
- Measurement Setup: HUVEC TNFa-induced p65 nuclear translocation; at 2 µM, active compounds read high, 0% TNFa-plus-vehicle, 100% no-TNFa wells
Answers are plain numbers, in %.

Please review the following examples before continuing.
O=C(CCNC(=O)c1ccc(Br)o1)NC1CCCC1: -18.2
O=C(Nc1ccncc1)c1cccc(F)c1: -6.9
CCOC(=O)C(C#N)C(c1cccnc1)c1c(C)[nH][nH]c1=O (stereo not given): -7.5
CC(C)Cc1nc2oc3c(N4CCN(CCO)CC4)ncnc3c2c2c1CCCC2: -11.5
Cn1nnnc1SCC(=O)NC1CCCCC1: 3.4

Batch lookup, inhibition per entry.
1. COc1ccccc1N1CCN(C(=O)C2CCCO2)CC1 (stereo not given)
2. CCOc1ccccc1NC(=O)CCN1CCN(S(=O)(=O)c2ccc(Br)cc2)CC1
3. Cc1occc1-c1nc(-c2ccncc2)no1
4. O=C(OCCCCN1C(=O)c2ccccc2C1=O)c1n[nH]c2ccccc12
5. COc1ccc(-c2nnc(-c3cccs3)o2)cc1OC
6. Cn1c(SCC(N)=O)nnc1C1CCN(C(=O)NCc2ccccc2)CC1
7. CC1CCCc2sc3nc(NCc4ccco4)n4ncnc4c3c21 (stereo not given)
8. COc1ccc(-n2c(Cc3cccn3C)nnc2SCC(=O)Nc2ccc(Cl)cc2)cc1

Return:
2.5
-12.3
7.3
8.6
-0.2
6.8
7.7
-5.8

Batch lookup, inhibition per entry.
1. CCOC(=O)N1CCN(C(=O)CN(c2ccc(C)cc2)S(=O)(=O)c2c(C)noc2C)CC1
2. S=C(c1ccc(-c2cc(Cl)ccc2Cl)o1)N1CCOCC1
3. O=C(Nc1ccccc1N1CCOCC1)c1ccc2ccccc2n1
4. CC(=O)Oc1ccc(-c2ccc(C(=O)O)cc2)cc1
5. CCOc1ccc(C2C(C#N)=C(N)Oc3cc(C)n(CCN(C)C)c(=O)c32)cc1OCC (stereo not given)
6. COc1ccc(CCNC(=O)C2CCN(C(=O)N(C)C)CC2)cc1OC
7. CC(C)C1C2=C(CC(C)(C)CC2=O)ON1c1ccccc1 (stereo not given)

Return:
1. -28.3
2. -10.4
3. -21.6
4. -6.5
5. -7.4
6. 0.9
7. 0.5

Just for reference, PubChem BioAssay is where these values come from.
